Target: recombinant human UAE (Homo sapiens (Human))
Sequence (P22314 whole entry): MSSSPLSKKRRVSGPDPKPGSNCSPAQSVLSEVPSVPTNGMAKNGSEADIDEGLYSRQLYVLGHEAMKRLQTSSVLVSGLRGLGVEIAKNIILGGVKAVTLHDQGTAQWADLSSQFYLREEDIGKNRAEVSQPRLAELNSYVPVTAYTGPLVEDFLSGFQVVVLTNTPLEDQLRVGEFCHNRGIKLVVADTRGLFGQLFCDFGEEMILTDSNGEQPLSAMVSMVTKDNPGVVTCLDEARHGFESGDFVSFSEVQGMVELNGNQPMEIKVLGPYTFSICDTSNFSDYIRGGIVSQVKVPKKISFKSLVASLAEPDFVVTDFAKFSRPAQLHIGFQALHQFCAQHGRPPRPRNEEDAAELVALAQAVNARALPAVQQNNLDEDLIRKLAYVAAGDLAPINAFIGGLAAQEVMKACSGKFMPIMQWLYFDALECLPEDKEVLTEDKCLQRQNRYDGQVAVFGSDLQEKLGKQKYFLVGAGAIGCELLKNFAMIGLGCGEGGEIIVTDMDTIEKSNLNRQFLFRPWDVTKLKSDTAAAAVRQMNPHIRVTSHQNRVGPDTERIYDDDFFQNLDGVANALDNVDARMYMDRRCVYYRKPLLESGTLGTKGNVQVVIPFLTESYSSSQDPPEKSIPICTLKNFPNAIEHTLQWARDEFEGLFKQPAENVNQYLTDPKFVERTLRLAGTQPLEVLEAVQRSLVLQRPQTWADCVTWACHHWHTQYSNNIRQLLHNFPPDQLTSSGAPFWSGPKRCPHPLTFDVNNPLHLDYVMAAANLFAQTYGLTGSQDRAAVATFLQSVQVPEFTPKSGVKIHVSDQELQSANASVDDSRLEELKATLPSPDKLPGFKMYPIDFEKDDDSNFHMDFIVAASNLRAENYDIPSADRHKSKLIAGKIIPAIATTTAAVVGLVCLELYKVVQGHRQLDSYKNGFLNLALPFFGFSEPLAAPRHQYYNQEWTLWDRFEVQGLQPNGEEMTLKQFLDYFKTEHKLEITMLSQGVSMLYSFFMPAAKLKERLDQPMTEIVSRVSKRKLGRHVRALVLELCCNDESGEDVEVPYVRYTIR
Test: Ubiquitin Activating Enzyme (UAE) HTRF Assay
Conditions: read-out: % inhibition @0.111 μM
Would you mind telling me the reported inhibition at 0.111 µM of each entry?
Quick note: give the figure in %, leave out the unit.

The compound identified as COc1ccc(OC(F)(F)F)cc1-c1cc2nccc(N[C@@H]3C[C@H](COS(N)(=O)=O)[C@@H](O)[C@H]3O)n2n1 [Compound I-102] registered its inhibition at 0.111 µM at 100

Value of measured inhibition at 0.111 µM for the entry NS(=O)(=O)OC[C@H]1C[C@@H](Nc2ccnc3cc(-c4c[nH]c5ccc(Cl)cc45)nn23)[C@H](O)[C@@H]1O (relative stereo) [Compound I-054] : 100

The measured inhibition at 0.111 µM associated with NS(=O)(=O)OC[C@H]1C[C@@H](Nc2ccnc3cc(-c4ccc5[nH]ccc5c4)nn23)[C@H](O)[C@@H]1O (relative stereo) [Compound I-074] reads 98

Entry COc1ccc(C(F)(F)F)cc1-c1cc2nccc(N[C@@H]3C[C@H](COS(N)(=O)=O)[C@@H](O)[C@H]3O)n2n1 (relative stereo) [Compound I-065] ; inhibition at 0.111 µM = 100

Lab note: measured inhibition at 0.111 µM of NS(=O)(=O)OC[C@H]1C[C@@H](Nc2ccnc3cc(-c4ccc5c(c4)C(=O)c4ccccc4-5)nn23)[C@H](O)[C@@H]1O (relative stereo) [Compound I-085] was 99

Field inhibition at 0.111 µM (entry NS(=O)(=O)OC[C@H]1C[C@@H](Nc2ccnc3cc(-c4cccc(N5CCCCC5)c4)nn23)[C@H](O)[C@@H]1O (relative stereo) [Compound I-077] ) reads 100

----------
Molecular target: mouse UAE (Mus musculus (Mouse), UniProt Q02053)
Sequence (Q02053 whole entry): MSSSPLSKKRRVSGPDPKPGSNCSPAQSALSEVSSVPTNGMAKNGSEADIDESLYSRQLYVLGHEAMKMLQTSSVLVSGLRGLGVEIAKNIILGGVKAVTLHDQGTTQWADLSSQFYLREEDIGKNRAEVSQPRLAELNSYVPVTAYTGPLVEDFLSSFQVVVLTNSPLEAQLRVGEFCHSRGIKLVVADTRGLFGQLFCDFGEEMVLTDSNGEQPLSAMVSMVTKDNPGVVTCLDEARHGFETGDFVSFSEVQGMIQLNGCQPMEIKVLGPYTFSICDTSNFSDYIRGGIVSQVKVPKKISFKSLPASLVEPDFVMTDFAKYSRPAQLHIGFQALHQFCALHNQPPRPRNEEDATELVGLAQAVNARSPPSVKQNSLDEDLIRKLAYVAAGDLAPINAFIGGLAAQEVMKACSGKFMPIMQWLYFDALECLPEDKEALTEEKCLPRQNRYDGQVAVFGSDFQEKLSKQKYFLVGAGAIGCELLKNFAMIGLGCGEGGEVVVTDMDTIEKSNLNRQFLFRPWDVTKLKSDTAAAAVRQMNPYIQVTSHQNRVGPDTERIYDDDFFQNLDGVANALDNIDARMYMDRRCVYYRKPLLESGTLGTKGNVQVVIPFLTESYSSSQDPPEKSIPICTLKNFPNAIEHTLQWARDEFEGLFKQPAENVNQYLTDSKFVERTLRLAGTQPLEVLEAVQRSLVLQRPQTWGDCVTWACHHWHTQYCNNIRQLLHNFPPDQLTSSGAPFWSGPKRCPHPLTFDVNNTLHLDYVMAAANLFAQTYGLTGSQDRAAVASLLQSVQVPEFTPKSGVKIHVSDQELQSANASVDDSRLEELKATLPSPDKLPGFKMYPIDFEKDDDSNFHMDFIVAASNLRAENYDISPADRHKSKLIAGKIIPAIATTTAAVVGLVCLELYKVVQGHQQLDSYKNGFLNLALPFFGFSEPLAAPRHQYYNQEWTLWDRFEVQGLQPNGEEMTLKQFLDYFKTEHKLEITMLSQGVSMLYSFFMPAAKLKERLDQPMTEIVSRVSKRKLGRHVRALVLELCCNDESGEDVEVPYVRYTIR
Assay: Ubiquitin Activating Enzyme (UAE) HTRF Assay
Conditions: read-out: % inhibition @0.111 μM
Kindly supply the reported inhibition at 0.111 µM values for the records listed here.
Express it in %; write the number only.

Quick note, inhibition at 0.111 µM for NS(=O)(=O)OC[C@H]1C[C@@H](Nc2ccnc3cc(-c4cccc5ccccc45)nn23)[C@H](O)[C@@H]1O (relative stereo) landed at 100

For reference, reported inhibition at 0.111 µM for NS(=O)(=O)OC[C@H]1C[C@@H](Nc2cc(Cl)nc3cc(-c4ccccn4)nn23)[C@H](O)[C@@H]1O (relative stereo) stands at 49

Measured inhibition at 0.111 µM of NS(=O)(=O)OC[C@H]1C[C@@H](Nc2ccnc3cc(-c4csc5cc(Cl)ccc45)nn23)[C@H](O)[C@@H]1O (relative stereo) : 100

Sample NS(=O)(=O)OC[C@H]1C[C@@H](Nc2ccnc3cc(-c4ccccn4)nn23)[C@H](O)[C@@H]1O (relative stereo) ; inhibition at 0.111 µM observed: 61

// NS(=O)(=O)OC[C@H]1C[C@@H](Nc2ccnc3cc(-c4ccccc4)nn23)[C@H](O)[C@@H]1O (relative stereo) : inhibition at 0.111 µM value = 72

For reference, reported inhibition at 0.111 µM for NS(=O)(=O)OC[C@H]1C[C@@H](Nc2ccnc3cc(-c4cccc(Cl)c4)nn23)[C@H](O)[C@@H]1O (relative stereo) stands at 100

----------
Molecular target: recombinant human UAE (Homo sapiens (Human))
Assay: Ubiquitin Activating Enzyme (UAE) HTRF Assay
Conditions: read-out: % inhibition @0.111 μM
measured.property: inhibition at 0.111 µM

Lab note: NS(=O)(=O)OC[C@H]1C[C@@H](Nc2cc(Cl)nc3cc(-c4ccccc4)nn23)[C@H](O)[C@@H]1O (relative stereo) gave inhibition at 0.111 µM of 23%

// sample NS(=O)(=O)OC[C@H]1C[C@@H](Nc2ccnc3cc(-c4ccc5[nH]c6ccccc6c5c4)nn23)[C@H](O)[C@@H]1O (relative stereo) , its inhibition at 0.111 µM was 100%

Sure, the documented inhibition at 0.111 µM for NS(=O)(=O)OC[C@H]1C[C@@H](Nc2ccnc3cc(-c4cccc5[nH]ccc45)nn23)[C@H](O)[C@@H]1O (relative stereo) is 100%

inhibition at 0.111 µM for NS(=O)(=O)OC[C@H]1C[C@@H](Nc2ccnc3cc(-c4cncc(-c5ccccc5)n4)nn23)[C@H](O)[C@@H]1O (relative stereo) is 100%

Kindly note the recorded inhibition at 0.111 µM for CC(C)(C)c1cccc(-c2cc3nccc(N[C@@H]4C[C@H](COS(N)(=O)=O)[C@@H](O)[C@H]4O)n3n2)n1 (relative stereo) , which is 100%

Record NS(=O)(=O)OC[C@H]1C[C@@H](Nc2ccnc3cc(-c4cc(Cl)ccc4OC(F)(F)F)nn23)[C@H](O)[C@@H]1O (relative stereo) . Reported inhibition at 0.111 µM: 100%

Input NS(=O)(=O)OC[C@H]1C[C@@H](Nc2c(Cl)cnc3cc(-c4cccc(SC(F)(F)F)c4)nn23)[C@H](O)[C@@H]1O . Output inhibition at 0.111 µM: 50%

Recorded inhibition at 0.111 µM (molecule NS(=O)(=O)OC[C@H]1C[C@@H](Nc2ccnc3cc(-c4cccc5c4oc4ccccc45)nn23)[C@H](O)[C@@H]1O [Compound I-103] ): 100%

In plain terms, NS(=O)(=O)OC[C@H]1C[C@@H](Nc2ccnc3cc(-c4ccc5c(c4)oc4ccccc45)nn23)[C@H](O)[C@@H]1O (relative stereo) has a documented inhibition at 0.111 µM of 100%

Summary for this molecule, NS(=O)(=O)OC[C@H]1C[C@@H](Nc2ccnc3cc(-c4cnc(-c5ccccc5)o4)nn23)[C@H](O)[C@@H]1O (relative stereo) : inhibition at 0.111 µM is 100%

Input NS(=O)(=O)OC[C@H]1C[C@@H](Nc2ccnc3cc(-c4cccc(C(=O)c5ccccc5)c4)nn23)[C@H](O)[C@@H]1O (relative stereo) . Output inhibition at 0.111 µM: 91%

# molecule NS(=O)(=O)OC[C@H]1C[C@@H](Nc2ccnc3cc(-c4cccc(C5=CCCC5)c4)nn23)[C@H](O)[C@@H]1O (relative stereo) ; its inhibition at 0.111 µM = 100%

Looking up COC(=O)c1ccc2c(-c3cc4nccc(N[C@@H]5C[C@H](COS(N)(=O)=O)[C@@H](O)[C@H]5O)n4n3)cccc2c1 (relative stereo) , I found its inhibition at 0.111 µM recorded as 100%

Looking up NS(=O)(=O)OC[C@H]1C[C@@H](Nc2ccnc3cc(-c4cccc(N5CCCC5=O)c4)nn23)[C@H](O)[C@@H]1O (relative stereo) , I see its inhibition at 0.111 µM listed as 100%

Quick note, inhibition at 0.111 µM for COc1ccc(-c2cc3nc(Cl)cc(N[C@@H]4C[C@H](COS(N)(=O)=O)[C@@H](O)[C@H]4O)n3n2)cc1 (relative stereo) landed at 30%

In plain terms, CC1(C)CCc2ccc(-c3cc4nccc(N[C@@H]5C[C@H](COS(N)(=O)=O)[C@@H](O)[C@H]5O)n4n3)cc21 (relative stereo) has a documented inhibition at 0.111 µM of 99%

What the record says about Cc1ccc(Cl)cc1-c1cc2nccc(N[C@@H]3C[C@H](COS(N)(=O)=O)[C@@H](O)[C@H]3O)n2n1 (relative stereo) : inhibition at 0.111 µM is 97%

Entry NS(=O)(=O)OC[C@H]1C[C@@H](Nc2ccnc3cc(-c4ccc5cc(F)ccc5c4)nn23)[C@H](O)[C@@H]1O ; inhibition at 0.111 µM = 100%

inhibition at 0.111 µM reading for Cc1ccc(-c2cc3nccc(N[C@@H]4C[C@H](COS(N)(=O)=O)[C@@H](O)[C@H]4O)n3n2)c2ccccc12 : 100%

Field inhibition at 0.111 µM (entry NS(=O)(=O)OC[C@H]1C[C@@H](Nc2ccnc3cc(-c4cccc(C(F)(F)F)c4)nn23)[C@H](O)[C@@H]1O (relative stereo) ) reads 99%

Kindly note the recorded inhibition at 0.111 µM for NS(=O)(=O)OC[C@H]1C[C@@H](Nc2ccnc3cc(-c4ccc(OC(F)F)c5ccccc45)nn23)[C@H](O)[C@@H]1O , which is 100%

Entry NS(=O)(=O)OC[C@H]1C[C@@H](Nc2ccnc3cc(-c4cccc(SCC5CC5)c4)nn23)[C@H](O)[C@@H]1O (relative stereo) , inhibition at 0.111 µM reported as 100%

inhibition at 0.111 µM for C[Si](C)(C)c1cccc(-c2cc3nccc(N[C@@H]4C[C@H](COS(N)(=O)=O)[C@@H](O)[C@H]4O)n3n2)c1 (relative stereo) is 100%
